# Tested on: human subjects
# Measurement protocol: Human olfactory psychophysics: valence rating by OR7D4 genotype
# Format: in vivo
# Protocol conditions: 7-point scale, two concentrations pooled
Quantity kind: valence rating, OR7D4 RT/WM vs RT/RT subjects

Fill in reported valence rating, OR7D4 RT/WM vs RT/RT subjects for this entry: C[C@]12CCC(=O)C[C@@H]1CC[C@@H]1[C@@H]2CC[C@]2(C)C=CC[C@@H]12 [androstenone, 5α-androst-16-en-3-one]
more pleasant

Fill in reported valence rating, OR7D4 RT/WM vs RT/RT subjects for this entry: C[C@@]12C=CC[C@H]1[C@@H]1CCC3=CC(=O)CC[C@]3(C)[C@H]1CC2 [androstadienone, androsta-4,16-dien-3-one]
more pleasant
